Tested on: Rattenlebermikrosomen
method-notes: Inhibition of microsomal lipid peroxidation (malondialdehyde/thiobarbituric acid)
Format: biochemical, Ratte
details: rat liver microsomes, FeSO₄ start, 10 min 37°C; read-out: IC50 Mikrosomale Lipidperoxidation
Mark satisfied only for IC50 values smaller than 2000 nM; exact matches and larger values are not satisfied.

compound: CC(C)(C)c1cc(C(Nc2ccc(Cl)cc2)P(=O)(O)O)cc(C(C)(C)C)c1O (stereo not shown)
tested-system: Rattenlebermikrosomen
class-assignment: satisfied
--
compound: CCOP(=O)(OCC)C(Nc1ccc(NC(c2cc(C(C)(C)C)c(O)c(C(C)(C)C)c2)P(=O)(OCC)OCC)cc1)c1cc(C(C)(C)C)c(O)c(C(C)(C)C)c1 (stereo not shown)
tested-system: Rattenlebermikrosomen
class-assignment: satisfied
--
compound: COP(=O)(OC)C(Nc1ccc2c(c1)OCO2)c1cc(C(C)(C)C)c(O)c(C(C)(C)C)c1 (stereo not shown)
tested-system: Rattenlebermikrosomen
class-assignment: satisfied
--
compound: CCCCOP(=O)(OCCCC)C(Nc1ccc2ccccc2c1)c1cc(C(C)(C)C)c(O)c(C(C)(C)C)c1 (stereo not shown)
tested-system: Rattenlebermikrosomen
class-assignment: not satisfied
--
compound: CCOP(=O)(OCC)C(NC(CC(C)C)C(=O)OC)c1cc(C(C)(C)C)c(O)c(C(C)(C)C)c1 (stereo not shown)
tested-system: Rattenlebermikrosomen
class-assignment: not satisfied
--
compound: CCOP(=O)(OCC)C(Nc1ccc2c(c1)CCCC2)c1cc(C(C)(C)C)c(O)c(C(C)(C)C)c1 (stereo not shown)
tested-system: Rattenlebermikrosomen
class-assignment: not satisfied
--
compound: CCOP(=O)(OCC)C(NC1CCCCCC1)c1cc(C(C)(C)C)c(O)c(C(C)(C)C)c1 (stereo not shown)
tested-system: Rattenlebermikrosomen
class-assignment: satisfied

====

fold induction at 10 µM for assorted molecules
System: Chondrozyten
method-notes: Stimulation of cartilage matrix (proteoglycan) synthesis in chondrocyte agarose culture, 35S-sulfate incorporation
Format: cell-based, Rinder
details: Chondrocyte, read-out: Stimulationsfaktor der Proteoglykansynthese
metric: fold induction at 10 µM

molecule: CCOP(=O)(OCC)C(NC1CCCCC1)c1cc(C(C)(C)C)c(O)c(C(C)(C)C)c1 (stereo not shown)
tested-system: Chondrozyten
metric: fold induction at 10 µM
result: 1.2

molecule: CCOP(=O)(OCC)C(Nc1ccc2c(c1)OCO2)c1cc(C(C)(C)C)c(O)c(C(C)(C)C)c1 (stereo not shown)
tested-system: Chondrozyten
metric: fold induction at 10 µM
result: 2.9

molecule: CCOP(=O)(OCC)C(Nc1ccc(OC)c(OC)c1)c1cc(C(C)(C)C)c(O)c(C(C)(C)C)c1 (stereo not shown)
tested-system: Chondrozyten
metric: fold induction at 10 µM
result: 2.5

molecule: CCOP(=O)(O)C(Nc1ccccn1)c1cc(C(C)(C)C)c(O)c(C(C)(C)C)c1 (stereo not shown)
tested-system: Chondrozyten
metric: fold induction at 10 µM
result: 1.4

molecule: CCOP(=O)(OCC)C(Nc1ccccc1C(=O)OC)c1cc(C(C)(C)C)c(O)c(C(C)(C)C)c1 (stereo not shown)
tested-system: Chondrozyten
metric: fold induction at 10 µM
result: 1.3

molecule: CCOP(=O)(OCC)C(NCc1ccc2c(c1)OCO2)c1cc(C(C)(C)C)c(O)c(C(C)(C)C)c1 (stereo not shown)
tested-system: Chondrozyten
metric: fold induction at 10 µM
result: 1.4

molecule: CCOP(=O)(OCC)C(c1cc(C(C)(C)C)c(O)c(C(C)(C)C)c1)N1CCCCC1 (stereo not shown)
tested-system: Chondrozyten
metric: fold induction at 10 µM
result: 1.2

Each recorded value in this set is attributed to patent EP0703239A1.
